- measurement-target: Glucocorticoid receptor (Homo sapiens)
- Sequence (P04150 whole entry, the tested form may be a part): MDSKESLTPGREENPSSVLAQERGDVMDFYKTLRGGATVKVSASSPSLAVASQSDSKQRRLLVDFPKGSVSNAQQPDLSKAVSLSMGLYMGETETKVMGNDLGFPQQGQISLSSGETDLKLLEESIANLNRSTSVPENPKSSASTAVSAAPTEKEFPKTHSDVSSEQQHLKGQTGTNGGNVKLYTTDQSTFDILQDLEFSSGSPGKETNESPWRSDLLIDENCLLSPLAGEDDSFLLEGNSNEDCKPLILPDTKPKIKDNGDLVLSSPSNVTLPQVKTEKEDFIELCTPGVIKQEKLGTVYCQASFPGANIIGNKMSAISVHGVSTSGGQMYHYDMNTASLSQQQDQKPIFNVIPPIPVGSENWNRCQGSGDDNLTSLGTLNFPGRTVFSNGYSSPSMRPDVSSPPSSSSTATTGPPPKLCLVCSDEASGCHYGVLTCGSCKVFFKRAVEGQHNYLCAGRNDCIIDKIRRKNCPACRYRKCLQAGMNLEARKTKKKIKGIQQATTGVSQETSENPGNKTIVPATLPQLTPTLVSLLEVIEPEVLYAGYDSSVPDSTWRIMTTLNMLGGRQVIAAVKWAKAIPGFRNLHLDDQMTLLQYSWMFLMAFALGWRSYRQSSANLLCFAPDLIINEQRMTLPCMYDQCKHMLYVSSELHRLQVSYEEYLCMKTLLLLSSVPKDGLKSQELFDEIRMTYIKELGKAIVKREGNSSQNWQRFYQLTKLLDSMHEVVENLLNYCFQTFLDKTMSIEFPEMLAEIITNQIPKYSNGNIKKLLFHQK
- assay-explanation: Activation of Gal-DBD and NHRLBD fused GR (unknown origin) transfected in African green monkey CV-1 cells by luciferase reporter assay
measured-endpoint: EC50

>>> print(df.to_string())
                  compound_structure_string                      measurement_target  test_result
0  O=C(O)C1(c2cccc(-c3ccc(OCc4c(-c5c(Cl)cccc5Cl)noc4C4CC4)cc3)c2)CC1  Glucocorticoid receptor (Homo sapiens)      > 10 µM

###

compounds and their reported pEC50
- measurement-target: Bile acid receptor (Homo sapiens, UniProt Q96RI1)
- Sequence (Q96RI1 whole entry, the tested form may be a part): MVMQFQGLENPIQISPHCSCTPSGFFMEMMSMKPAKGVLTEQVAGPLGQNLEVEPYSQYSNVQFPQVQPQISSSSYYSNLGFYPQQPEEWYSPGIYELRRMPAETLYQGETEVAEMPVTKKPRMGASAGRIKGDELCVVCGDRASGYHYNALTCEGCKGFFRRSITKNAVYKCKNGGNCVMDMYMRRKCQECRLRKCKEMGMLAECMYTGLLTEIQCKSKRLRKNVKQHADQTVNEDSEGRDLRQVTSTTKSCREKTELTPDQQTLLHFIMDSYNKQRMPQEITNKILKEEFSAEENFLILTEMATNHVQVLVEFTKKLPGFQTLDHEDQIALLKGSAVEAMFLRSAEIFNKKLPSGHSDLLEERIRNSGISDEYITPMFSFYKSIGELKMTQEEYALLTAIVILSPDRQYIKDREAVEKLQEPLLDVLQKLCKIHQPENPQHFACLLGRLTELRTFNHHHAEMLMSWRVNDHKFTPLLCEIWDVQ
- assay-explanation: Agonist activity at FXR-LBD (unknown origin) using fluorescein-coactivator peptide incubated for 3 hrs by TR-FRET assay
pEC50: −log10 of the molar value.
measured-endpoint: pEC50

                                   compound  measured_endpoint  qualifying_sign  test_result
0  O=C(O)COc1cccc(-c2ccc(OCc3c(-c4c(Cl)cccc4Cl)noc3C3CC3)cc2)c1              pEC50                =         6.59
1  O=C(O)C1(c2cccc(-c3cccc(OCc4c(-c5c(Cl)cccc5Cl)noc4C4CC4)c3)c2)CC1              pEC50                <         5.00
2  O=C(O)Cc1cccc(N2CCC(OCc3c(-c4c(Cl)cccc4Cl)noc3C3CC3)CC2)c1              pEC50                <         5.00
3  CC(Oc1ccc(-c2ccc(OCc3c(-c4c(Cl)cccc4Cl)noc3C3CC3)cc2)cc1)C(=O)O (stereo not drawn)              pEC50                =         6.49
4  O=C(O)C1(c2cccc(-c3ccc(OCc4c(-c5c(Cl)cccc5Cl)noc4C4CC4)cc3)c2)CC1              pEC50                =         6.84
5  O=C(O)Cc1ccc(-c2cccc(OCc3c(-c4c(Cl)cccc4Cl)noc3C3CC3)c2)cc1              pEC50                <         5.00
6  CCc1c(-c2ccccc2)c(-c2ccccc2)nn1-c1ccccc1-c1cccc(OCC(=O)O)c1              pEC50                <         5.00
7  CC(C)(C(=O)O)c1cccc(-c2ccc(OCc3c(-c4c(Cl)cccc4Cl)noc3C3CC3)cc2)c1              pEC50                =         6.09

###

- assay-explanation: Metabolic stability in Beagle dog liver microsomes assessed as parent compound remaining incubated for 1 hr by LC-MS analysis
- Type: ADME, Canis lupus familiaris, Microsome
- recorded-conditions: read-out: Stability
compounds and their reported remaining at 1 h
measured-endpoint: remaining at 1 h (%)

>>> df
                  compound_structure_string  test_result
0  O=C(O)C1(c2cccc(-c3ccc(OCc4c(-c5c(Cl)cccc5Cl)noc4C4CC4)cc3)c2)CC1         57.4
1  O=C(O)Cc1ccc(-c2ccc(OCc3c(-c4c(Cl)cccc4Cl)noc3C3CC3)cc2)cc1         69.1

###

molecules and their reported EC50
- measurement-target: Oxysterols receptor LXR-beta (Homo sapiens, UniProt P55055)
- Sequence (P55055 whole entry): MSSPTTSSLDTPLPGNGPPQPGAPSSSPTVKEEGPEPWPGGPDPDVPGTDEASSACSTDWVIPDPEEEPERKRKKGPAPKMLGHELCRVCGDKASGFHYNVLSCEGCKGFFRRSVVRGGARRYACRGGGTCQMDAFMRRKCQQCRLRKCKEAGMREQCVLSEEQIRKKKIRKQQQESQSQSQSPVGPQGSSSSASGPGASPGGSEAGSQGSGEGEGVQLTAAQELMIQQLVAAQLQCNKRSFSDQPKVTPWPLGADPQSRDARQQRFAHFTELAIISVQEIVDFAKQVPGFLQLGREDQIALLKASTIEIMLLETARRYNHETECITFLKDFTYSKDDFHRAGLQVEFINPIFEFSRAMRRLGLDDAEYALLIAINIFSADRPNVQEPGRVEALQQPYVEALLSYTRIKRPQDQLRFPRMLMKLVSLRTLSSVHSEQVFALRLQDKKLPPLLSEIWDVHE
- assay-explanation: Inhibition of Gal-DBD and NHRLBD fused LXRbeta (unknown origin) transfected in African green monkey CV-1 cells by luciferase assay
measured-endpoint: EC50

>>> df
                  compound_structure_string                        measurement_target  measured_endpoint  test_result
0  CCc1c(-c2ccccc2)c(-c2ccccc2)nn1-c1ccccc1-c1cccc(OCC(=O)O)c1  Oxysterols receptor LXR-beta (Homo sapiens, UniProt P55055)               EC50      > 10 µM
1  O=C(O)Cc1ccc(-c2ccc(OCc3c(-c4c(Cl)cccc4Cl)noc3C3CC3)cc2)cc1  Oxysterols receptor LXR-beta (Homo sapiens, UniProt P55055)               EC50      > 10 µM

###

- measurement-target: Peroxisome proliferator-activated receptor gamma (Homo sapiens)
- Sequence (P37231 whole entry): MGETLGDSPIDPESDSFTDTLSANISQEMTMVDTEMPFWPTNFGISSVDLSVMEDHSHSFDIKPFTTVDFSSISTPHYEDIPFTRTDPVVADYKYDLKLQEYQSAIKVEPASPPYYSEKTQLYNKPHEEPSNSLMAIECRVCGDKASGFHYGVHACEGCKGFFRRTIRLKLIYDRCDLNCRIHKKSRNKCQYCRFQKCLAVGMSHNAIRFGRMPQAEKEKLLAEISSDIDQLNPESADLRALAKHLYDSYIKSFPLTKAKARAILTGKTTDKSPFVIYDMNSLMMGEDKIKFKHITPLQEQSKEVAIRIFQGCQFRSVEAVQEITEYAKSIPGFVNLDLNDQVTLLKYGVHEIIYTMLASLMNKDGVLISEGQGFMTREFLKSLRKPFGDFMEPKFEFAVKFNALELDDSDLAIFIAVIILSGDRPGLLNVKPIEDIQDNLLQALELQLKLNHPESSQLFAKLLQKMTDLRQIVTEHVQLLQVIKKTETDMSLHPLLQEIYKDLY
- assay-explanation: Agonist activity at PPARgamma (unknown origin) transfected in HEK293 cells incubated for 18 hrs by renilla/firefly based dual-glo luciferase assay
measured-endpoint: EC50

>>> df
                  compound_structure_string  measured_endpoint  test_result
0  O=C(O)C1(c2cccc(-c3ccc(OCc4c(-c5c(Cl)cccc5Cl)noc4C4CC4)cc3)c2)CC1               EC50      > 10 µM

###

- measurement-target: UniProt P10828
- Sequence (P10828 whole entry, the tested form may be a part): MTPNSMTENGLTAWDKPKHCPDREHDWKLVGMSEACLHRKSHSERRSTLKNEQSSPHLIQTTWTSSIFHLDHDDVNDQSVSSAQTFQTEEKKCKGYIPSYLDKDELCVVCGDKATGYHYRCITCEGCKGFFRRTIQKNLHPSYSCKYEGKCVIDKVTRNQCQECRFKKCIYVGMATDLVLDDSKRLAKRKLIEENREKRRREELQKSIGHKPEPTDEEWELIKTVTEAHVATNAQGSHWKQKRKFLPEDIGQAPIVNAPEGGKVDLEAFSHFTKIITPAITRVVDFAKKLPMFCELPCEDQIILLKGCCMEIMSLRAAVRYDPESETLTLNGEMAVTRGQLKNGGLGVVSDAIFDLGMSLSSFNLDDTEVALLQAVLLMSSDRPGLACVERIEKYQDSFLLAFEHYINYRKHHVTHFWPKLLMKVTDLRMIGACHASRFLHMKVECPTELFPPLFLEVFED
- assay-explanation: Activation of pGAL4 fused THRbeta LBD (unknown origin) transfected in HEK293 cells cotransfected with pG5-Luc and pRL-TK incubated for 24 hrs by Renilla/Firefly based dual-glo luciferase assay
pEC50: −log10 of the molar value.
measured-endpoint: pEC50

In [3]: df
Out[3]:
                  compound_structure_string  measured_endpoint  test_result
0  CCc1c(-c2ccccc2)c(-c2ccccc2)nn1-c1ccccc1-c1cccc(OCC(=O)O)c1              pEC50       < 5.00

###

- assay-explanation: Ratio of drug level in liver to plasma in C57BL/6 mouse at 20 mg/kg, po administered for 5 days and measured after 1 hr post final dose by LC-MS analysis
measured-endpoint: Kp at 120 h

>>> df
                  compound_structure_string  test_result
0  O=C(O)C1(c2cccc(-c3ccc(OCc4c(-c5c(Cl)cccc5Cl)noc4C4CC4)cc3)c2)CC1          5.1

###

- measurement-target: Fatty acid-binding protein, liver (Homo sapiens)
- Sequence (P07148 whole entry): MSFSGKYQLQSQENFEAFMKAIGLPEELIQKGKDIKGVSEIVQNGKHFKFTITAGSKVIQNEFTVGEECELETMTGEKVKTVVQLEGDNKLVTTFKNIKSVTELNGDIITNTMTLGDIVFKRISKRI
Decide using IC50 alone. Strictly below 4 µM: fulfilled. Equal to or above 4 µM: not fulfilled.

>>> print(df.to_string())
                                   molecule     class_name
0  O=C(O)C1(c2cccc(-c3ccc(OCc4c(-c5c(Cl)cccc5Cl)noc4C4CC4)cc3)c2)CC1      fulfilled
1  CC(Oc1ccc(-c2ccc(OCc3c(-c4c(Cl)cccc4Cl)noc3C3CC3)cc2)cc1)C(=O)O (stereo unspecified)      fulfilled
2  O=C(O)Cc1ccc(-c2ccc(OCc3c(-c4c(Cl)cccc4Cl)noc3C3CC3)cc2Cl)cc1  not fulfilled
3  CC(C)c1onc(-c2c(Cl)cccc2Cl)c1COc1ccc(/C=C/c2cccc(C(=O)O)c2)c(Cl)c1  not fulfilled
4  O=C(O)CCc1cccc(-c2ccc(OCc3c(-c4c(Cl)cccc4Cl)noc3C3CC3)cc2)c1      fulfilled
5  O=C(O)CCc1ccc(-c2ccc(OCc3c(-c4c(Cl)cccc4Cl)noc3C3CC3)cc2)cc1      fulfilled

###

- measurement-target: Free fatty acid receptor 1 (Homo sapiens, UniProt O14842)
- Sequence (O14842 whole entry): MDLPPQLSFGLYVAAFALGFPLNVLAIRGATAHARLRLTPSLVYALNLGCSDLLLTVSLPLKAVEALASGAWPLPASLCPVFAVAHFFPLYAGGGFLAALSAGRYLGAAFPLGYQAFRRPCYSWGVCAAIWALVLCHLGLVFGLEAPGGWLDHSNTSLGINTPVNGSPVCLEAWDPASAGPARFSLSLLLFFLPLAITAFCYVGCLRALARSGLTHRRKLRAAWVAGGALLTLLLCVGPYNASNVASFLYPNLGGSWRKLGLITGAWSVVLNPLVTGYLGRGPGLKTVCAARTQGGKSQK
- assay-explanation: Agonist activity at human FFA1 stably expressed in CHO cells assessed as intracellular calcium flux by FLIPR assay
measured-endpoint: EC50

>>> df
                  compound_structure_string                        measurement_target  measured_endpoint  test_result
0  O=C(O)C1(c2cccc(-c3ccc(OCc4c(-c5c(Cl)cccc5Cl)noc4C4CC4)cc3)c2)CC1  Free fatty acid receptor 1 (Homo sapiens, UniProt O14842)               EC50      > 10 µM

###

- assay-explanation: Ratio of drug level in ileum to plasma in C57BL/6 mouse at 20 mg/kg, po administered for 5 days and measured after 1 hr post final dose by LC-MS analysis
measured-endpoint: Kp at 120 h

In [3]: df
Out[3]:
                  compound_structure_string  test_result
0  O=C(O)C1(c2cccc(-c3ccc(OCc4c(-c5c(Cl)cccc5Cl)noc4C4CC4)cc3)c2)CC1          104

###

- assay-explanation: Inhibition of PPARbeta/delta (unknown origin) transfected in HepG2 cells incubated for 18 hrs in presence of GW0742 by dual luciferase reporter assay
- recorded-conditions: Homo sapiens, HepG2, 18 h
pIC50: −log10 of the molar value.
measured-endpoint: pIC50

>>> df
                  compound_structure_string  test_result
0  CCc1c(-c2ccccc2)c(-c2ccccc2)nn1-c1ccccc1-c1cccc(OCC(=O)O)c1       < 5.00
1  O=C(O)C1(c2cccc(-c3ccc(OCc4c(-c5c(Cl)cccc5Cl)noc4C4CC4)cc3)c2)CC1       < 5.00
